Test system: neonicotinoid insecticide resistant aphid strain
Type: in vivo
condition: mixed age aphids on chinese cabbage leaf discs, Potter Tower spray, mortality 72 hours after treatment; resistant strain from peach orchard, Avignon region, 2009
Method: The following bioassay methodology was utilized to generate the data included in the table: 5 cm leaf discs were taken from fully expanded chinese cabbage leaves and placed with the underside facing upwards onto water agar in 5 cm Petri dishes. The leaf discs are infested with between 30 and 40 mixed age aphids 24 hours prior to insecticide treatment. […] Aphids were assessed for mortality 72 hours after treatment.
result.type: LC50 with 95% confidence limit (ppm) resistant strain

{"compound": "CN/C(=N/CC1CCOC1)N[N+](=O)[O-] (stereo not shown)", "value.observed": "538 (435-696) ppm"}
{"compound": "C/C(=N\\C#N)N(C)Cc1ccc(Cl)nc1", "value.observed": "49.3 (35.2-72.0) ppm"}
{"compound": "CN1COCN(Cc2cnc(Cl)s2)/C1=N\\[N+](=O)[O-]", "value.observed": "148 (128-172) ppm"}
{"compound": "CN/C(=N\\[N+](=O)[O-])NCc1cnc(Cl)s1", "value.observed": "904 (478-3616) ppm"}
{"compound": "N#C/N=C1\\SCCN1Cc1ccc(Cl)nc1", "value.observed": ">1000 ppm"}
{"compound": "CCN(Cc1ccc(Cl)nc1)/C(=C/[N+](=O)[O-])NC", "value.observed": "237 (93.7-3566) ppm"}
{"compound": "CC(=O)N1C(=O)N(NCc2cccnc2)Cc2cc(C(F)(C(F)(F)F)C(F)(F)F)ccc21", "value.observed": "0.09 (0.06-0.13) ppm"}
